MEASURED TARGET: human OX1R (Homo sapiens)
Sequence (O43613 whole entry): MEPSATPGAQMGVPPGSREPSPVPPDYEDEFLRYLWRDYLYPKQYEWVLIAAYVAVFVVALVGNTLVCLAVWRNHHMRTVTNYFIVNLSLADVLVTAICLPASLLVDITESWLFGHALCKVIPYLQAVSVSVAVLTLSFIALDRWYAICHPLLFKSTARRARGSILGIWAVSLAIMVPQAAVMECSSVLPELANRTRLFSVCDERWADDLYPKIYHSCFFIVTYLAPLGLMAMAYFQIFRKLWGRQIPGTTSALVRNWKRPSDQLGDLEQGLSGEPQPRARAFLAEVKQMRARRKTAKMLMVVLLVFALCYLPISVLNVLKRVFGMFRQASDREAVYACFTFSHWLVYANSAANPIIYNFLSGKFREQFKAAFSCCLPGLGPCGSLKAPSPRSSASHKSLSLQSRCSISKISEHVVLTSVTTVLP
METHOD DESCRIPTION: OX1R calcium mobilization assay
CONDITION LABEL: calcium mobilization
QUANTITY: agonist activity at OX1R (in words)

Solved cases (5 shown):
- RECORD SMILES: "COc1ccc(-c2cccc(C(=O)N(C)C)c2)cc1S(=O)(=O)Nc1cccc(N2CCN(C(=O)c3cccc(C)c3)CC2)c1"
  agonist activity at OX1R (in words): "all activities were lost"
- RECORD SMILES: "COc1ccc(-c2cccc(C(=O)N(C)Cc3ccncc3)c2)cc1S(=O)(=O)Nc1cccc(NCCNC(=O)c2cccc(C)c2)c1"
  agonist activity at OX1R (in words): "full agonist"
- RECORD SMILES: "COc1ccc(/C=C/C(=O)N(C)C)cc1S(=O)(=O)Nc1cccc(NCCNC(=O)c2cccc(C)c2)c1"
  agonist activity at OX1R (in words): "inactive"
- RECORD SMILES: "COc1ccc(-c2cccc(CN(C)C)c2)cc1S(=O)(=O)Nc1cccc(NCCNC(=O)c2ccccc2N(C)C)c1"
  agonist activity at OX1R (in words): "no activity"
- RECORD SMILES: "COc1ccc(-c2cccc(C(=O)N(C)C)c2)cc1C(=O)Nc1cccc(NCCNC(=O)c2cccc(C)c2)c1"
  agonist activity at OX1R (in words): "total loss of activity"

Input: // agonist activity at OX1R (in words) lookup, key: `COc1ccc(-c2cccc(C(=O)N(C)C)n2)cc1S(=O)(=O)Nc1cccc(NCCNC(=O)c2cccc(C)c2)c1`
Output: full agonist

Input: Reported agonist activity at OX1R (in words) for `CCCNC(=O)c1cccc(-c2ccc(OC)c(S(=O)(=O)Nc3cccc(NCCNC(=O)c4ccccc4N(C)C)c3)c2)c1` : what is it?
Output: no activity

Input: Form field: reported agonist activity at OX1R (in words) of `COc1ccc(-c2cccc(C(=O)N(C)Cc3ccccc3)c2)cc1S(=O)(=O)Nc1cccc(NCCNC(=O)c2cccc(C)c2)c1`
Output: no activity

Input: What does the data say about its agonist activity at OX1R (in words)? Entry: `COc1ccc(CCC(=O)N(C)C)cc1S(=O)(=O)Nc1cccc(NCCNC(=O)c2cccc(C)c2)c1`
Output: inactive

Input: Quick one: agonist activity at OX1R (in words) for `COc1ccc(-c2cccc(C(=O)N(C)Cc3ccncc3)c2)cc1C(=O)Nc1cccc(NCCNC(=O)c2cccc(C)c2)c1` ?
Output: total loss of activity

Input: Report agonist activity at OX1R (in words) for `COc1ccc(-c2cccc(C(=O)N(C)C)c2)cc1S(=O)(=O)Nc1cccc(N2CCN(C(=O)c3ccccc3N(C)C)CC2)c1` please.
Output: all activities were lost
